# Test system: NS0 cells
# protocol: Growth response of NS0 cells in 24-well plates to cholesterol biosynthesis precursors/intermediates
# Format: cell-based, mouse
# reported conditions: cholesterol-free CD Hybridoma medium, 4 mg/ml fatty acid-free BSA, three concentrations per precursor
measurement kind: growth of NS0 cells supported by precursor/intermediate

# smiles, measurement
measured = [
    ("CC(C)=CCC/C(C)=C/CC/C(C)=C/CC/C=C(\\C)CC/C=C(\\C)CCC=C(C)C", "Growth was not supported"),
    ("C[C@@]1(O)CCOC(=O)C1", "Growth was not supported"),
    ("CC(C)=CCC[C@@H](C)[C@H]1CC[C@@]2(C)C3=C(CC[C@]12C)[C@@]1(C)CC[C@H](O)C(C)(C)[C@@H]1CC3", "Growth was not supported"),
]
